# tested-system: hQC (Homo sapiens)
# Sequence (Q16769 29-361): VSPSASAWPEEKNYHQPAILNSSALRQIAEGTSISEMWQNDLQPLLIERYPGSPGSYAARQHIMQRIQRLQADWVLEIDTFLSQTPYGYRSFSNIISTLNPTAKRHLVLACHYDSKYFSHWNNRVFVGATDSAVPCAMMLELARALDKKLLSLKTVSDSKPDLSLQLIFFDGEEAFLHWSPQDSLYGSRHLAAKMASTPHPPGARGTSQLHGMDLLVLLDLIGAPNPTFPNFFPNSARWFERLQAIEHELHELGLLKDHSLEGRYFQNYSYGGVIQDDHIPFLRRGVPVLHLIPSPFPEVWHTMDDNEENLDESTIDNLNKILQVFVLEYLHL
# assay-details: Inhibitor assay for glutaminyl cyclase activity (fluorometric, H-Gln-βNA / H-Gln-AMC)
# Format: biochemical
# test-context: read-out: IC50
log10(IC50) for assorted compounds
A value of 2 here means IC50 of 100 in nM, since values are log10.

Some entries whose results are on file:
CC1=C(O)C(=O)N(CCCn2ccnc2)C1c1ccc(C)o1 (stereo not drawn) :: 3.69
CC1=C(O)C(=O)N(c2ccc3[nH]cnc3c2)C1c1nccs1 (stereo not drawn) :: 3.52
O=C1C(O)=C(c2ccc(O)cc2)C(c2ccc(CO)o2)N1CCCn1ccnc1 (stereo not drawn) :: 2.60

Kindly state the measured log10(IC50) obtained for O=C1C(O)=C(c2ccccc2)C(c2ccco2)N1CCCn1ccnc1 (stereo not drawn) with hQC (Homo sapiens).
1.60

Kindly state the measured log10(IC50) obtained for CCCCCC1=C(O)C(=O)N(CCCn2ccnc2)C1c1cccs1 (stereo not drawn) with hQC (Homo sapiens).
1.60

----------
# tested-system: hQC (Homo sapiens)
# assay-details: Inhibitor assay for glutaminyl cyclase activity (fluorometric, H-Gln-βNA / H-Gln-AMC)
# Format: biochemical
# test-context: read-out: IC50
API: label(entry) gives Met if the entry's IC50 is strictly smaller than 80 nM; on equality or larger values it gives Not met.

CCC1=C(O)C(=O)N(CCCn2ccnc2)C1C1=CCCCC1 (stereo not drawn) :: Met
CC1=C(O)C(=O)N(c2ccc3nc[nH]c3c2)C1c1c(F)ccc(F)c1Cl (stereo not drawn) :: Not met
CCCCCC1=C(O)C(=O)N(c2ccc3[nH]cnc3c2)C1c1cccc(F)c1 (stereo not drawn) :: Not met
Cc1ccc(C2C(c3cccc(O)c3)=C(O)C(=O)N2CCCn2ccnc2)o1 (stereo not drawn) :: Not met
CCC1=C(O)C(=O)N(c2ccc3[nH]cnc3c2)C1c1cc(Cl)ccc1O (stereo not drawn) :: Not met

Lab note: confirm whether the reported IC50 for this compound is below 80 nM, equality not counting. compound: CC1=C(O)C(=O)N(CCCn2ccnc2)C1c1cccc(O)c1 (stereo not drawn)
Not met

Lab note: confirm whether the reported IC50 for this compound is below 80 nM, equality not counting. compound: CC1=C(O)C(=O)N(c2ccc3[nH]cnc3c2)C1c1cccc(Cl)c1Cl (stereo not drawn)
Met

Lab note: confirm whether the reported IC50 for this compound is below 80 nM, equality not counting. compound: O=C(C1=C(O)C(=O)N(c2ccc3[nH]cnc3c2)C1c1cccc2cccnc12)C1CC1 (stereo not drawn)
Not met

Lab note: confirm whether the reported IC50 for this compound is below 80 nM, equality not counting. compound: O=C1C(O)=C(c2ccccc2)C(c2cc(Cl)cc(Cl)c2O)N1CCCn1ccnc1 (stereo not drawn)
Met

----------
Label scheme for melting point: lower than 200 °C is Condition not met, 200 °C and above is Condition met.

Solved cases (8 shown):
CCCC(=O)C1=C(O)C(=O)N(c2ccc3[nH]cnc3c2)C1c1ccc(-c2ccccn2)cc1 (stereo not shown) [Compound 387] :: Condition met
CCCC(=O)C1=C(O)C(=O)N(c2ccc3[nH]cnc3c2)C1c1ccc2nonc2c1 (stereo not shown) [Compound 421] :: Condition met
CC(=O)C1=C(O)C(=O)N(c2ccc3[nH]cnc3c2)C1c1ccc2nonc2c1 (stereo not shown) [Compound 403] :: Condition not met
O=C(C1=C(O)C(=O)N(c2ccc3[nH]cnc3c2)C1c1ccc2nonc2c1)C1CC1 (stereo not shown) [Compound 440] :: Condition not met
CC1=C(O)C(=O)N(c2ccc3[nH]cnc3c2)C1c1cc(F)c(F)cc1F (stereo not shown) [Compound 469] :: Condition not met
CC(=O)C1=C(O)C(=O)N(c2ccc3[nH]cnc3c2)C1c1cccc(F)c1F (stereo not shown) [Compound 350] :: Condition not met
O=C(C1=C(O)C(=O)N(c2ccc3[nH]cnc3c2)C1c1ccc2cccc(O)c2n1)C1CC1 (stereo not shown) [Compound 446] :: Condition not met
CC(=O)C1=C(O)C(=O)N(c2ccc3[nH]cnc3c2)C1c1ccc2cccc(O)c2n1 (stereo not shown) [Compound 277] :: Condition not met

Could you tell me if the measured melting point of O=C1C(O)=C(c2ccccc2)C(c2cnc3ccccc3c2)N1c1ccc2[nH]cnc2c1 (stereo not shown) [Compound 420] reaches 200 °C or more?
Condition not met

Could you tell me if the measured melting point of O=C1C(O)=C(c2ccccc2)C(c2cc(F)cc(F)c2F)N1c1ccc2[nH]cnc2c1 (stereo not shown) [Compound 445] reaches 200 °C or more?
Condition not met
